# Test system: AMPA receptor
# METHOD: Whole cell patch-clamp recording of s-AMPA induced currents in pyramidal neurons of rat brain prefrontal cortex slices
# Type: cell-based
# RUN_PARAMETERS: rat brain slice PFC pyramidal neurons; n=4 to 5 experiments per concentration; read-out: IC50 of inhibition of peak amplitude responses to 20 μM s-AMPA
MEASURED_PARAMETER: pIC50
Answers are plain numbers, as −log10 of the molar value.

Ask: Tell me the measured pIC50 of O=C(O)[C@@H]1C[C@H]2C[C@@H](CCc3nn[nH]n3)CC[C@H]2CN1 [Tezampanel, reference compound] , please.
Result: 6.32
